Assay details: yeast display, Sf9 membrane polyspecificity reagent, FACS + sequencing; frameworks hold sequencing errors
Parameter: polyreactivity (PSR sort gate)

Example results:
# Sequence data, Parameter, Meas value
rows = [
    ("QVQLVESGGGLVQAGGSLRLSCAASGSTFPQNDMGWYRQAPGKERELVAAITRSAGSTYYADSVKGRFTISRDNAKNTVYLQMNSLKPEDTAVYYCNTGRQRGDGWGQGTQVTVSS", "polyreactivity (PSR sort gate)", "high polyreactivity"),
    ("QVQLVESGGGLVQAGGSLRLSCHATGFTFTIYAMGWYRQAPGKERELVATISGRAGRTYYADSVKGRFTISRDIAKNTVYLQMNSLKPEDTAVYYCNAGQWRYPGLYYYWGKGTQVTVSS", "polyreactivity (PSR sort gate)", "high polyreactivity"),
    ("QVQLVESGGGLVQAGGSLRLSCAASGSIFAYYAMGWYRQAPGKERELVAAISRRGGSTYYADSVKGRFTISRDNAKNTVYLQMNSLKPEDTAVYYCAADGGGTTSLEYGNDYWGQGTQVTVSS", "polyreactivity (PSR sort gate)", "high polyreactivity"),
    ("QVQLVESGGGLVQAGGSLRLSCASSGSTFFTNVMVRYRQAPGKERELVAAIDQRDGRTYYADSVKGRFTISRDNAKNTVYLQMNSLKPEDTAVYYSNAGTDGYQFYFGFADYDYWGQGTQVTVSA", "polyreactivity (PSR sort gate)", "low polyreactivity"),
]

Switching to the query record.
Ask: Would you mind telling me what polyreactivity (PSR sort gate) value was observed for QVQLLEAGGGLVQAGGSLRFSCAHSGSIVSHYAIGWYRQAPGKERELVAAITGGGITYYADSVKGRFTISRDNAKNTVYLQMNSLKPEDTAVDYCDTDSLMFTIYDYWGQGTQVTVSS ?
Reply: low polyreactivity

###

Assay details: yeast display, Sf9 membrane polyspecificity reagent, FACS + sequencing; frameworks hold sequencing errors
Parameter: polyreactivity (PSR sort gate)

Example results:
# Sequence data, polyreactivity (PSR sort gate)
measured = [
    ("QVQLVESGGGLVQAGGSLRISCAASGSTFVSYAMGWYRQAPGKERELVATISWRGGSTYYADSVKGRFTISRDNAKNRDYLHMNSLNPEDTAVYYCAADLWHSQYYYGYEYWGQGSQVTVSS", "low polyreactivity"),
    ("QVQLVESGGGLDQAGGSLRLSCAASGSIFANNAMGWYRQAPGKERELVATIRSGGTTNYADSVKGRFTISRDNAKNTVYLQMNSLKPEDTAVYYCAAETVSYYSKYDYWGQGTQVTVSS", "low polyreactivity"),
    ("QVQLVESGGGLVQAGGSLRLSCAASGITLLYNAMGWYRQAPGKERELVAGITGRGGSTYYADSVKGRFTISRDNAKNTVYLQMNSLKPEDNAVYYCAATTDYRYVGRIVIRDDHWGHGTQVTVSS", "low polyreactivity"),
    ("QVQLVESGGGLVQAGGSLRLSCAASGSIFTYNAMGWYRQAPGKERELVAAITSSSGSSTYADSVKGRFTISRDNAKNTVYLQMNSLKPEDTAVYYCAAPILSFPSPYVQYDYWGQGTQVTVSS", "low polyreactivity"),
    ("QVQLVESGGGLVQAGGSLRLSCAASGSILKGYAMGWYRQAPGKERELVAAISGSGGSTHYADSVKGRFTISRDNAKNTVYLQMNSLKPEDTAVYYCAAAYKWTYYWGQGTQVTVSS", "high polyreactivity"),
    ("QVQLVESGGGLVQAGGSLRLSCAASGSTFGDYAMGWYRQGPGKERELVASINQNGGDTYYADSVKGRFTISRDNAKNTVYLQMNSLKPEDTAVYYCAAEAGYYFQTVAIDMGYWGQGTQVTVSS", "low polyreactivity"),
    ("QVQLVESGGGLVQAGGSLRLSCAASGRTITFYTMGWYRQAPVKERELVARITGGGSTFYADSVKGRFTISRDNAKNTVYLLMNSLKPEDTAVYYCAREYASAFWYPMYYWGQGTQVNVSS", "low polyreactivity"),
    ("QVQLVESGGGLVQAGGSLRLSCAASGITFYGYAMGWYRQAPGKERELVAAITRGGSTNYADSVKGRFTISRDNAKNTVYLQMNSLKPEDTAVYYCAAEYSVYWYYRYEYWGQGTQVTVSS", "high polyreactivity"),
]

Switching to the query record.
Ask: Would you mind telling me what polyreactivity (PSR sort gate) value was observed for QVQLVESGGGLVQAGGSLRLSCAASGLTLYRYTMGWYRQAPGKERELVAGISRGGSTYYADSVKGRFTISRDNAKNTVYLQMNSLKPEDTAVYYCAAYYGGHYYAYSYDYWGQGTQVTVSS ?
Reply: high polyreactivity

###

Assay details: yeast display, Sf9 membrane polyspecificity reagent, FACS + sequencing; frameworks hold sequencing errors
Parameter: polyreactivity (PSR sort gate)

Example results:
# Sequence data, Meas value
data = [
    ("QVQLVESVGGLVQAGGSLRLSCAASGGTFQHYTMGWYRQAPGKERELVAAISLSGTRTYYADSVKGRFTISRDNAKNTVYLQMNSLKPEDTAVYYCAARYGVEYWGQGTQVTVSS", "low polyreactivity"),
    ("QVQLVESGGGLVQAGGSLRLSCAASGNTFLPYAMGWYRQAPGKERELVAAISWSGGSTYYADSVKGRFTISRDNAKNTVYLQMNSLKPEDTAVYYCARRGYQRYLSSYYYWGQGTQVTVSS", "high polyreactivity"),
    ("QVQLVESGGGLVQAGGSLRLSCAASGSTFFGYAMGWYRQAPGKERELVAAITYTGDTTYYADSVKGRFTISRDNAKNTVYLQMNSLNPEDTAVYYCAAGGYPVYTGRGMDYWGQGTQVTVSS", "low polyreactivity"),
    ("QVQIVESGGVLVQAGGSIRLSCDASGSLFTIYAMGCYRQAPGKERELVAAITWSGGSTYYADSVKGRYTISRDNAKNTVNLQMNSLKPEDTAVYYCAADAYTGDIPYWWPWNNEYDYWGQGTQVTLSS", "low polyreactivity"),
    ("QVQLVESGGGLVQAGGSLRLSCAASGSTFRFNAMGWYRQAPGKERELVAAISGSGGSTYYADSVKGRFTISRDNAKNTVYLQMNSLKPEDTAVYYCAASASSRSYFKSYYWGQGTQVTVSS", "high polyreactivity"),
    ("EEELVESGGGLVQAGGSLSLICAASGLTFYIYAMGWYRPAPGKERELVAAITTSGDSTYYADSVKGRFTISRDNAKNTVYLLLNSLKPEDTAVYYGAAAVWHYGRPGYLDSGYDYWGQGTQVSVSS", "low polyreactivity"),
]

Ask: Would you mind telling me what polyreactivity (PSR sort gate) value was observed for QVQLVESGGGLVQAGGSLRLSCAASGLIFSYYVMGWYRQAPGKERELVAAISRIGGSTYYADSVKGRFTISRDNAKNTVYLQMNSLKPEDTAVYYCAAYDLSPGSLTGGYYWGQGTQVTVSS ?
Reply: high polyreactivity

Ask: Also, QVQLVESGAGLVQAGGSLRLSCAASGSIFSYYVMGWYRQAPGKERELVAAISYSGGRTYYADSVKGSFTISRDNAKYTVYLQMNSLKPEDTAVYFCAASRRVGEVSYYYWGQGTQVTVSS please.
Reply: high polyreactivity

Ask: Also, QVQLVESGGGLVQAGGSLRLSCAATGITFYTYAMGWYRQAPGKERELVAAITRSGGSTYYADSVKGRFTISRDNAKNTVYLQMNSLKPEDTAVYYCAADGGYIYWEHLYYSGSDYWGQGTQVTVSS please.
Reply: low polyreactivity

Ask: Also, QVQLVESGGGLVQAGGSLRLSCAASGRIFIPYAMGWYRQAPGKERELVAAISSSGGSTYYADSVKGRFTISRDTAKNTVYLQMNSLKPEDTAVYYCAARLYWGYAYETYSSLFEYDYWGQGTQVTVSS please.
Reply: low polyreactivity

###

Assay details: yeast display, Sf9 membrane polyspecificity reagent, FACS + sequencing; frameworks hold sequencing errors
Parameter: polyreactivity (PSR sort gate)

# Sequence data, Parameter, Meas value
data = [
    ("QVQLVESGGGFVQAGGSLRLSCAASGFIFRVYAMGWYRPAPGKERELVAAISKRGGSTFYADSVKGRFTISRDNANNTVYLQMNSLKPEDTAVYDCAASARLGYDYWGQGTQVTVSS", "polyreactivity (PSR sort gate)", "high polyreactivity"),
    ("QVKLVESGGGLVQAGCRLRLSCAASGFICGYNAMGWYRQAPGKERELVAAIDWSGTSTYYADSVKWRFTISRDNAKNTVYLQMNSLKPEDSAVYYCAADTSTWDHTRGYDYWGQGTQVTVSS", "polyreactivity (PSR sort gate)", "high polyreactivity"),
    ("QVQLVESGGGLVQAGGSLRISCAASGSTSLYYAMGWYSQAPGKEREFVAANTWSGGSTYYADSVKGRFTISRDNAKNSVYLQMNSLQPVDTAVDYWAARSYGYSAGYYWRQGTQVTVSS", "polyreactivity (PSR sort gate)", "high polyreactivity"),
]
